Test: Chemical stability of the compound in acidic buffer assessed as compound recovery at pH 2 after 30 mins by HPLC-PDA analysis
Type: physicochemical
Settings: acidic buffer, pH 2; read-out: Drug recovery
resultType: remaining at 0.5 h
Form field: result (number plus unit)

Please fill in: remaining at 0.5 h reported for `C/C(=N\NC(=O)c1ccc(N(C)C)cc1)c1ccc(C(=O)NO)cc1` = 6%

###

Target: Histone deacetylase 2 (Homo sapiens)
Sequence (Q92769 whole entry): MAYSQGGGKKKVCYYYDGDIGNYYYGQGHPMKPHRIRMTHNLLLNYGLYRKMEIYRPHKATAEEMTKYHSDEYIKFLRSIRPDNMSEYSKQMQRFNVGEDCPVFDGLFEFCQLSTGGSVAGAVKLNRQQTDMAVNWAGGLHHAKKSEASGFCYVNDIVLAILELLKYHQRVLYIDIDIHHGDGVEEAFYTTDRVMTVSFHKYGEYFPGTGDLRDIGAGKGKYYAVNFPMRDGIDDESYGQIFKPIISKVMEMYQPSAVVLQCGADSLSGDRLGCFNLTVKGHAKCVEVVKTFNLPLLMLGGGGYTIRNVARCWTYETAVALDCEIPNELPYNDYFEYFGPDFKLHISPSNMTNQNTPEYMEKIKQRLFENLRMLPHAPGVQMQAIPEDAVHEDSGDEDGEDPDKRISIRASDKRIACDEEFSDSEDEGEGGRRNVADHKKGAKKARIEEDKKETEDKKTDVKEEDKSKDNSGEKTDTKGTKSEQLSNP
Experiment: Inhibition of recombinant human HDAC2 by fluorimetry
resultType: IC50

Study these solved cases before continuing.
{"smiles": "CN(C)c1ccc(C(=O)N/N=C/c2ccc(C(=O)NO)cc2)cc1", "IC50": "> 3 µM"}
{"smiles": "CN(/N=C/c1ccc(C(=O)NO)cc1)C(=O)c1ccc(N(C)C)cc1", "IC50": "> 3 µM"}
{"smiles": "C/C(=N\\NC(=O)c1ccc(N(C)C)cc1)c1ccc(C(=O)NO)cc1", "IC50": "> 3 µM"}

Go through the items and report each one's IC50.
1. CN(/N=C/c1cccc(C(=O)NO)c1)C(=O)c1ccc(N(C)C)cc1
2. C/C(=N\N(C)C(=O)c1ccc(N(C)C)cc1)c1ccc(C(=O)NO)cc1
3. CN(C)c1ccc(C(=O)N/N=C/c2cccc(C(=O)NO)c2)cc1

result:
1: > 10 µM; 2: > 3 µM; 3: > 10 µM

Provenance of the data: ChEMBL document CHEMBL3763045
